Data provenance: patent US20250042889A1

Can you tell me log10 half-life for the items I'm about to list?
- Test name: in vivo
- Protocol conditions: male, CD1, mouse, plasma, po, 10 mg/kg
Would you kindly interpret these values as log10 of half-life expressed in min?

State, in one line, measured log10 half-life of CNc1cncc(C(=O)N2CCC[C@@H](Nc3c(C(=O)N4CCCCC4)cc(Br)cc3[N+](=O)[O-])C2)c1
1.18

State, in one line, measured log10 half-life of CNc1cncc(C(=O)N2CCC[C@@H](Nc3c(C(=O)N4C[C@@H](C)O[C@@H](C)C4)cc(Br)cc3[N+](=O)[O-])C2)c1
1.48

State, in one line, measured log10 half-life of CNc1cncc(C(=O)N2CCC[C@@H](Nc3c(C(=O)N4CCOC(F)(F)C4)cc(Br)cc3[N+](=O)[O-])C2)c1
1.06

State, in one line, measured log10 half-life of O=C(c1cc(Br)cc([N+](=O)[O-])c1N[C@@H]1CCCN(C(=O)[C@H]2CNCC(F)(F)C2)C1)N1CCCCC1
1.42

State, in one line, measured log10 half-life of CNc1cncc(C(=O)N2C[C@H](Nc3c(C(=O)N4C[C@@H](C)O[C@@H](C)C4)cc(Br)cc3[N+](=O)[O-])[C@@H](OC)C2)c1
2.16

State, in one line, measured log10 half-life of CNc1cncc(C(=O)N2C[C@H](Nc3c(C(=O)N4C[C@@H](C)O[C@@H](C)C4)cc(Br)cc3[N+](=O)[O-])C[C@@H](OC)C2)c1
1.28
